Can you tell me pIC50 for the items I'm about to list?
- TARGET_OR_SYSTEM: CRTH2 receptor (Homo sapiens, UniProt Q9Y5Y4)
- Sequence (Q9Y5Y4 whole entry): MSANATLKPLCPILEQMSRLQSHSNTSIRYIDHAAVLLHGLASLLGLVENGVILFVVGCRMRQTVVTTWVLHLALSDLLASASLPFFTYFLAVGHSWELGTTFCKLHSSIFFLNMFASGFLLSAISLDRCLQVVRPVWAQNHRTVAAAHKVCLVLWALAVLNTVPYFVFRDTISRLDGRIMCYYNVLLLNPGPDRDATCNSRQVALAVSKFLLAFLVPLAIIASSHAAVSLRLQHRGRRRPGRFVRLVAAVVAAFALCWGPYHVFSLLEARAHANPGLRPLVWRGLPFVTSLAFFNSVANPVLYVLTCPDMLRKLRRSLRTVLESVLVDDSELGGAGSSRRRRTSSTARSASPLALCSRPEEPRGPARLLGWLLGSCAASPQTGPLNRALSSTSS
- ASSAY_METHOD_TEXT: Calcium flux FLIPR assay, antagonism against CRTH2 receptor (PGD2 at EC80)
- CONDITION_SUMMARY: CHO-K1/CRTH2/Gα15 cells; blocking activation induced by PGD2 at EC80
One number for each entry, as −log10 of the molar value.

As a guide, the following entries are already answered.
O=C(O)Cn1nc(Cc2ccc(NC(=O)c3ccc4ccccc4c3)cc2)c2ccccc21: 8.64
CCc1c(Cc2ccc(NC(=O)c3ccc4ccccc4c3)cc2)c2ccccc2n1CC(=O)O: 8.15
O=C(O)Cc1nn(Cc2ccc(NC(=O)c3ccc(Cl)cc3)cc2)c2ccccc12: 8.14
O=C(O)Cc1nn(Cc2ccc(NC(=O)c3ccc4ccccc4c3)cc2)c2cc(F)ccc12: 7.83
O=C(O)Cc1nn(Cc2ccc(NC(=O)c3ccc4ccccc4c3)cc2)c2ccccc12: 8.44

I would be grateful if you could provide pIC50 for each of the following entries.
1. O=C(O)Cc1nn(Cc2ccc(NC(=O)c3ccc4cc(F)ccc4c3)cc2)c2ccccc12
2. Cc1c(CC(=O)O)c2ccccc2n1Cc1ccc(NC(=O)c2ccc3ccccc3c2)cc1
3. Cc1c(Cc2ccc(NC(=O)c3ccc(C(F)(F)F)cc3)cc2)c2ccccc2n1CC(=O)O
4. Cc1c(Cc2ccc(NC(=O)c3ccc(Cl)c(Cl)c3)cc2)c2ccccc2n1CC(=O)O

8.35
8.59
8.21
8.57

* * *

- TARGET_OR_SYSTEM: CRTH2 receptor (Homo sapiens, UniProt Q9Y5Y4)
- Construct: host or cells: CHO-K1/CRTH2/Gα15
- ASSAY_METHOD_TEXT: Calcium flux FLIPR assay, antagonism against CRTH2 receptor (PGD2 at EC80)
- Type: cell-based
- CONDITION_SUMMARY: CHO-K1/CRTH2/Gα15 cells; blocking activation induced by PGD2 at EC80
- Procedure: Test procedure The test was performed by Nanjing GenScript Biotech Ltd. by calcium flux assay. Test procedure and results are as follows: Material for test was weighed accurately, and DMSO was added to dissolve the material for test, mixed and homogenized sufficiently, and formulated to 50 mM. […] FLIPR Assay (Real Time Fluorescence Imaging Analysis) […] Data Processing ΔRFU(Relative fluorescence intensity)=maximum fluorescence value of 21-120 seconds−average value of fluorescence value of 1-20 seconds. […]
pIC50: −log10 of the molar value.
Assign class by pIC50: not lower than 8 means rule met; lower than 8 means rule not met.

Example entries begin here.
O=C(O)Cc1nn(Cc2ccc(NC(=O)c3ccc4ccccc4c3)cc2)c2ccc(F)cc12: rule met
Cc1c(Cc2ccc(NC(=O)c3ccc4ccccc4c3)cc2)c2ccccc2n1CC(=O)O: rule met
O=C(O)CCn1c2c(c3ccccc31)C[C@H](NS(=O)(=O)c1ccc(F)cc1)CC2 [Ramatroban, reference compound]: rule not met
O=C(O)Cc1nn(Cc2ccc(NC(=O)c3ccc4ccccc4c3)cc2)c2ncccc12: rule met

From here, focus on the item given below.
Quick check, pIC50 >= 8? Cc1c(Cc2ccc(NC(=O)c3ccc(Cl)cc3)cc2)c2ccccc2n1CC(=O)O
rule met
